The entries below are paired with their reported normalized growth.
# Protocol: chemical genetic growth profiling, strain panel (AID 1159580);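 note: tested at 20 µM; growth read once vehicle control cultures reached saturation at 30 °C; 1 = growth at the plate median or of vehicle wells; lower values mean less growth of the strain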
# Measurement Setup: S. cerevisiae deletion strains, growth OD, locus YCL069W, strain vba3, stronger effect = lower value
Hit rate of the full screen: of about 5,500 compounds, about 2,000 (36%) were called active. Inconclusive results (about 18%) are left out. Some of the results follow.

Below, each entry is followed by its recorded normalized growth result.
{"columns": ["Compound", "Parameter", "Val"],
 "data": [
  ["CN1C[C@H](C(=O)N[C@]2(C)O[C@@]3(O)[C@@H]4CCCN4C(=O)[C@H](Cc4ccccc4)N3C2=O)C[C@@H]2c3cccc4[nH]cc(c34)C[C@H]21", "normalized growth", "0.992 (inactive)"],
  ["C[C@@H]1CC[C@@]2(OC1)OC1CC3C4CC=C5C[C@@H](O)CC[C@]5(C)C4CC[C@]3(C)C1[C@@H]2C (stereo partly specified)", "normalized growth", "0.995 (inactive)"],
  ["C[C@@H]([C@H](O)c1ccccc1)N(C)C", "normalized growth", "1.01 (inactive)"]
]}

Please give the measured normalized growth for this compound: NC(=NCCC[C@H](N)C(=O)O)N[N+](=O)[O-] 1.01 (inactive)

Please give the measured normalized growth for this compound: C[C@@H]1CC[C@@]2(OC1)O[C@H]1CC3C4CC[C@H]5C[C@@H](O)CC[C@]5(C)C4CC[C@]3(C)[C@H]1[C@@H]2C (stereo partly specified) 1 (inactive)

Please give the measured normalized growth for this compound: COC(=O)[C@@]1(C)CCC[C@]2(C)c3ccc(O)c(C(C)C)c3CCC12 (stereo partly specified) 0.977 (inactive)

Please give the measured normalized growth for this compound: CC(=O)OCC1=C(C(=O)O)N2C(=O)[C@@H](NC(=O)Cc3cccs3)[C@H]2SC1 1.01 (inactive)

Please give the measured normalized growth for this compound: CC(=O)Oc1ccc2c(c1C(C)C)CCC1C(C)(C)CCC[C@]21C (stereo partly specified) 1.01 (inactive)

Please give the measured normalized growth for this compound: O=c1ccc2c(O)c3ccoc3cc2o1 0.98 (inactive)

Please give the measured normalized growth for this compound: COc1ccc2ccc(=O)oc2c1 0.988 (inactive)

Please give the measured normalized growth for this compound: CNC(C)C(O)c1ccccc1 (stereo unspecified) 1.02 (inactive)

* * *

# Protocol: chemical genetic growth profiling, strain panel (AID 1159580)
# Measurement Setup: S. cerevisiae deletion strains, growth OD, locus YDR318W, strain mcm21, stronger effect = lower value
About 2,000 (36%) of roughly 5,500 compounds were called active. Roughly 18% stayed inconclusive and do not appear here. Some of the results follow.
The entries below are paired with their reported normalized growth.

{"columns": ["Molecule", "normalized growth"],
 "data": [
  ["CC/C(=C(/CC)c1ccc(O)cc1)c1ccc(O)cc1", "0.952 (inactive)"],
  ["NC(=O)CN1CCCC1=O", "1.01 (inactive)"],
  ["O=C(O)C1=C[C@@H](O)[C@@H](O)[C@H](O)C1", "0.999 (inactive)"],
  ["C[C@]12CCC3c4ccc(OS(=O)(=O)O)cc4CCC3C1CC[C@H]2O (stereo partly drawn)", "0.986 (inactive)"],
  ["CC(C)c1c(O)ccc2c1CCC1[C@@](C)(CO)CCC[C@]21C (stereo partly drawn)", "0.911 (active)"],
  ["CC(C)(C)NCC(O)c1cc(Cl)c(N)c(Cl)c1 (stereo not drawn)", "0.994 (inactive)"]
]}

Please give the measured normalized growth for this molecule: COc1cc(O)c2c(=O)c(O)c(-c3ccc(O)c(O)c3)oc2c1 0.986 (inactive)

Please give the measured normalized growth for this molecule: COc1ccc(-c2cc(=O)c3c(O)cc(O[C@@H]4O[C@H](CO[C@H]5O[C@H](C)[C@@H](O)[C@H](O)[C@@H]5O)[C@@H](O)[C@H](O)[C@H]4O)cc3o2)cc1O 1 (inactive)

Please give the measured normalized growth for this molecule: CCOC(=O)c1c(C)cc(O)cc1O 0.893 (active)

Please give the measured normalized growth for this molecule: NC(=O)NCC(N)C(=O)O (stereo not drawn) 0.999 (inactive)

* * *

The entries below are paired with their reported normalized growth.
# Protocol: chemical genetic growth profiling, strain panel (AID 1159580);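 note: tested at 20 µM; growth read once vehicle control cultures reached saturation at 30 °C; 1 = growth at the plate median or of vehicle wells; lower values mean less growth of the strain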
# Measurement Setup: S. cerevisiae deletion strains, growth OD, locus YGL253W, strain hxk2, stronger effect = lower value
Hit rate of the full screen: of about 5,500 compounds, about 2,000 (36%) were called active. Inconclusive results (about 18%) are left out. Some of the results follow.

Below, each entry is followed by its recorded normalized growth result.
{"columns": ["Molecule", "Val"],
 "data": [
  ["CC1(C)C=CC(=O)[C@@]2(C)C1CC(=O)[C@]1(C)C2CC[C@@]2(C)[C@H](c3ccoc3)OC(=O)C3OC321 (stereo partly specified)", "0.994 (inactive)"],
  ["C[N+](C)(C)CC(O)CC(=O)O (stereo unspecified)", "0.957 (inactive)"],
  ["CC(=O)OCC1=C(C(=O)O)N2C(=O)[C@@H](NC(=O)Cc3cccs3)[C@H]2SC1", "1 (inactive)"]
]}

Please give the measured normalized growth for this molecule: CC1(C)C(=O)C=C[C@@]2(C)C1CC(=O)[C@]1(C)C2CC[C@@]2(C)[C@H](c3ccoc3)OC(=O)[C@H]3O[C@]321 (stereo partly specified) 0.981 (inactive)

Please give the measured normalized growth for this molecule: CC(=O)Oc1ccc2c(c1OC(C)=O)OCC1(O)Cc3c(cc(OC(C)=O)c(OC(C)=O)c3OC(C)=O)C21 (stereo unspecified) 1.04 (inactive)

* * *

# Protocol: chemical genetic growth profiling, strain panel (AID 1159580);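 note: tested at 20 µM; growth read once vehicle control cultures reached saturation at 30 °C; 1 = growth at the plate median or of vehicle wells; lower values mean less growth of the strain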
# Measurement Setup: S. cerevisiae deletion strains, growth OD, locus YJL166W, strain qcr8
The campaign covered roughly 5,500 compounds. About 2,000 (36%) were called active. Inconclusive results (about 18%) are left out. Rule as the data show it: active = normalized growth mostly below about 0.91 (no sharp cut-off); inconclusive = no clear call, values can overlap the other calls; inactive = mostly above about 0.92. Some of the results follow.
Assign a class; possible classes are active, inactive

Take a look at these entries with their results.
{"columns": ["Compound", "Label Value"],
 "data": [
  ["CC(C)c1c(O)ccc2c1CCC1[C@@](C)(CO)CCC[C@]21C (stereo partly specified)", "inactive"],
  ["COC1=CC(=O)C(C(=O)c2ccccc2)=CC1=O", "inactive"],
  ["CC1CC[C@]2(NC1)O[C@H]1CC3C4CC[C@H]5C[C@@H](O)CC[C@]5(C)C4CC[C@]3(C)[C@H]1[C@@H]2C (stereo partly specified)", "active"]
]}

In this assay, the call recorded for NC(=NCCC[C@H](N)C(=O)O)N[N+](=O)[O-] was what? inactive

In this assay, the call recorded for NC(N)=NC(=O)c1nc(Cl)c(N)nc1N was what? inactive

In this assay, the call recorded for C[C@@H]1CC[C@@]2(OC1)O[C@H]1CC3C4CC[C@H]5C[C@@H](O)CC[C@]5(C)C4CC[C@]3(C)[C@H]1[C@@H]2C (stereo partly specified) was what? inactive

In this assay, the call recorded for CC(=O)Oc1ccc2c(c1OC(C)=O)OCC1(O)Cc3c(cc(OC(C)=O)c(OC(C)=O)c3OC(C)=O)C21 (stereo unspecified) was what? inactive

In this assay, the call recorded for CC(C)(C)NCC(O)c1cc(O)cc(O)c1 (stereo unspecified) was what? inactive

In this assay, the call recorded for Cc1[nH]ccc2c1[nH]c1cc(=O)ccc12 was what? inactive

In this assay, the call recorded for CC(C)[N+](C)(CCC(C(N)=O)(c1ccccc1)c1ccccc1)C(C)C was what? inactive

In this assay, the call recorded for C[C@@H]1CC[C@@]2(OC1)OC1CC3C4CC=C5C[C@@H](O)CC[C@]5(C)C4CC[C@]3(C)C1[C@@H]2C (stereo partly specified) was what? inactive

In this assay, the call recorded for NC(=O)c1ncn([C@@H]2O[C@H](CO)[C@@H](O)[C@H]2O)n1 was what? inactive

In this assay, the call recorded for O=c1c(O)c(-c2ccc(O)cc2O)oc2cc(O)cc(O)c12 was what? inactive

In this assay, the call recorded for COc1ccc(-c2oc3cc(O[C@H]4O[C@H](CO)[C@@H](O)[C@H](O)[C@H]4O)c(OC)c(O)c3c(=O)c2OC)cc1O was what? inactive

In this assay, the call recorded for CC(=O)OCC1=C(C(=O)O)N2C(=O)[C@@H](NC(=O)Cc3cccs3)[C@H]2SC1 was what? inactive

In this assay, the call recorded for COC(=O)[C@@]1(C)CCC[C@]2(C)c3ccc(O)c(C(C)C)c3CCC12 (stereo partly specified) was what? active

In this assay, the call recorded for O=c1cc(-c2ccc(O)cc2)oc2cc(O[C@@H]3O[C@H](CO)[C@@H](O)[C@H](O)[C@H]3O)cc(O)c12 was what? inactive

* * *

# Protocol: chemical genetic growth profiling, strain panel (AID 1159580);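 note: tested at 20 µM; growth read once vehicle control cultures reached saturation at 30 °C; 1 = growth at the plate median or of vehicle wells; lower values mean less growth of the strain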
# Measurement Setup: S. cerevisiae deletion strains, growth OD, locus YNL224C, strain SQS1, stronger effect = lower value
Among all 5,500 compounds or so, about 2,000 (36%) were called active. Roughly 18% stayed inconclusive and do not appear here. Some of the results follow.
Parameter: normalized growth

Below, each entry is followed by its recorded normalized growth result.
{"columns": ["Compound", "normalized growth"],
 "data": [
  ["N#C/C(=C/c1ccc(O)c(O)c1)C(N)=S", "0.985 (inactive)"],
  ["CNCC(O)c1ccc(O)cc1 (stereo not drawn)", "0.999 (inactive)"]
]}

Now, please, on to the next compound.
Please give the measured normalized growth for this compound: N#C/C(=C\c1ccc(O)c(O)c1)C(=O)NCCCc1ccccc1 1 (inactive)
